Attribution: ChEMBL document CHEMBL3132815

Below, each of the compounds is paired with its reported Activity value.
- Test system: Staphylococcus aureus
- ASSAY_INFO: Antibacterial activity against methicillin-resistant Staphylococcus aureus assessed as planktonic growth at 50 ug/ml
- Format: organism-based
- RUN_CONDITIONS: in vitro
// note: answer is a bare numeric in %

Lookup: Determine from records and report Activity for Cl.Cl.NCC(=O)c1cnc2ncccn12
Found: 7.8

Lookup: Determine from records and report Activity for Cl.Cl.NCCC(=O)c1cnc2ncccn12
Found: -12.6

Lookup: Determine from records and report Activity for O=C(CN1C(=O)c2ccccc2C1=O)c1cnc2ncccn12
Found: 3.76

Lookup: Determine from records and report Activity for Nc1ncc(C(=O)CCNC(=O)c2ccc[nH]2)[nH]1
Found: 85.37

Lookup: Determine from records and report Activity for O=C(NC/C=C/c1cnc2ncccn12)c1cc(Br)c(Br)[nH]1
Found: -6.1

Lookup: Determine from records and report Activity for O=C(NCC(O)c1cnc2ncccn12)c1ccc[nH]1 (configuration not stated)
Found: 0.95

Lookup: Determine from records and report Activity for O=C(NCCC(=O)c1cnc2ncccn12)c1cc(Br)c[nH]1
Found: -6.08

Lookup: Determine from records and report Activity for O=C(NCCC(=O)c1cnc2ncccn12)c1ccc[nH]1
Found: 0.95

###

- Test system: Staphylococcus aureus
- ASSAY_INFO: Antibiofilm activity against Staphylococcus aureus ATCC 35556 assessed as inhibition of biofilm formation at 50 ug/ml
- Assay type: functional
Below, each of the molecules is paired with its reported inhibition at 50 µg/mL value.
Please answer using a numeric value trailed by its unit.

For orientation, consider the following solved cases.
MOLECULE	RESULT_VALUE
O=C(NCC(O)c1cnc2ncccn12)c1cc(Br)c(Br)[nH]1 (stereo not given)	-4.41%
O=C(NCCC(=O)c1cnc2ncccn12)c1cc(Br)c[nH]1	-8.17%

Lookup: Determine from records and report inhibition at 50 µg/mL for O=C(NCCC(=O)c1cnc2ncccn12)c1ccc[nH]1
Found: -1.6%

Lookup: Determine from records and report inhibition at 50 µg/mL for Nc1ncc(C(=O)CCNC(=O)c2cc(Br)c[nH]2)[nH]1
Found: 98%

Lookup: Determine from records and report inhibition at 50 µg/mL for Cl.Cl.NCC(=O)c1cnc2ncccn12
Found: -5.1%

Lookup: Determine from records and report inhibition at 50 µg/mL for O=C(NCC(O)c1cnc2ncccn12)c1cc(Br)c[nH]1 (stereo not given)
Found: -8.17%

Lookup: Determine from records and report inhibition at 50 µg/mL for Nc1nc(C(=O)CCNC(=O)c2cc(Br)c(Br)[nH]2)c[nH]1
Found: -0.94%

Lookup: Determine from records and report inhibition at 50 µg/mL for O=C(NCC(O)c1cnc2ncccn12)c1ccc[nH]1 (stereo not given)
Found: -1.6%

Lookup: Determine from records and report inhibition at 50 µg/mL for O=C(CN1C(=O)c2ccccc2C1=O)c1cnc2ncccn12
Found: -3.15%

Lookup: Determine from records and report inhibition at 50 µg/mL for O=C(NCCC(O)c1cnc2ncccn12)c1ccc[nH]1 (stereo not given)
Found: -6.5%

###

- Test system: Pseudomonas aeruginosa
- ASSAY_INFO: Antibacterial activity against Pseudomonas aeruginosa PAO1 assessed as planktonic growth at 50 ug/ml
- Type: organism-based
Recorded Activity determines the group label, using L: < -10%; M: ≥ -10% and < 10%; H: ≥ 10%

The following molecules have reported results that may help.
MOLECULE	ASSIGNED_CATEGORY
O=C(NCCC(=O)c1cnc2ncccn12)c1cc(Br)c[nH]1	L
Cl.Cl.NCC(=O)c1cnc2ncccn12	H
O=C(NCC(O)c1cnc2ncccn12)c1ccc[nH]1 (configuration not stated)	L
O=C(NCC(=O)c1cnc2ncccn12)c1cc(Br)c(Br)[nH]1	L
Cl.Cl.NCCC(=O)c1cnc2ncccn12	H

Lookup: GET /class?item= O=C(NCCC(=O)c1cnc2ncccn12)c1cc(Br)c(Br)[nH]1
Found: L

Lookup: GET /class?item= O=C(NCC(=O)c1cnc2ncccn12)c1ccc[nH]1
Found: M

Lookup: GET /class?item= O=C(NCC(=O)c1cnc2ncccn12)c1cc(Br)c[nH]1
Found: M

Lookup: GET /class?item= O=C(CCN1C(=O)c2ccccc2C1=O)c1cnc2ncccn12
Found: L
